# experimental details: Antifungal activity against Candida krusei after 24 hrs by microbroth dilution method
# Assay type: functional
# recorded conditions: Pichia kudriavzevii
observed property: MIC90 (µM)

C[C@@H]1[C@H](O)[C@@H](C)/C=C/C=C/C=C/C=C/C=C/C=C/C=C/[C@H](O[C@@H]2O[C@H](C)[C@@H](O)[C@H](N)[C@@H]2O)C[C@@H]2O[C@](O)(C[C@@H](O)C[C@@H](O)[C@H](O)CC[C@@H](O)C[C@@H](O)CC(=O)O[C@H]1C)C[C@H](O)[C@H]2C(=O)O :: 0.5

(P) CC(C)CCC[C@](C)(N)C1CCC(C)CC1 (stereo not given in full)
(Q) CC(C)CCC[C@@](C)(C1CCC(C)CC1)N(C)C (stereo not given in full)
(R) CC(C)=CCC[C@](C)(N)[C@H]1CC=C(C)CC1
Exam item: list the entries in increasing order of MIC90. Rank the items, then write their labels in that order.
P, R, Q
(P: 14 µM, R: 36 µM, Q: 58 µM)

Values from ChEMBL document CHEMBL3862018
